Ratio values for the molecules below.
# Test system: Mycobacterium tuberculosis
# EXPERIMENT_NOTES: Ratio of isoniazid MIC to compound MIC for Mycobacterium tuberculosis H37Rv ATCC 27294
# Format: functional
Returns: the value as a bare number; no unit string appended.

Use the examples below as a reference point.
[
  {
    "MOLECULE": "CCOC(=O)N1CCN(CC(=O)N2C(c3ccc(OC)cc3)C(C)C(=O)C(C)C2c2ccc(OC)cc2)CC1 (stereo not given)",
    "MEASUREMENT_LABEL": "Ratio",
    "READOUT_VALUE": 1.56
  },
  {
    "MOLECULE": "CCOC(=O)N1CCN(CC(=O)N2C(c3ccc(F)cc3)CC(=O)C(CC)C2c2ccc(F)cc2)CC1 (stereo not given)",
    "MEASUREMENT_LABEL": "Ratio",
    "READOUT_VALUE": 0.39
  },
  {
    "MOLECULE": "CCOC(=O)N1CCN(CC(=O)N2C(c3ccccc3)CC(=O)C(CC)C2c2ccccc2)CC1 (stereo not given)",
    "MEASUREMENT_LABEL": "Ratio",
    "READOUT_VALUE": 1.56
  },
  {
    "MOLECULE": "CCOC(=O)N1CCN(CC(=O)N2C(c3ccc(Cl)cc3)C(C)C(=O)C(C)C2c2ccc(Cl)cc2)CC1 (stereo not given)",
    "MEASUREMENT_LABEL": "Ratio",
    "READOUT_VALUE": 1.56
  }
]

Attention now turns to another entry.
Ratio for CCOC(=O)N1CCN(CC(=O)N2C(c3cccc(F)c3)C(C)C(=O)C(C)C2c2cccc(F)c2)CC1 (stereo not given) is 1.56

----------
# Tested on: Cryptococcus neoformans
# EXPERIMENT_NOTES: Antifungal activity against Cryptococcus neoformans ATCC 3315 after 72 to 96 hr by two-fold serial dilution method
# Type: functional
MIC values for the compounds below.

Use the examples below as a reference point.
[
  {
    "COMPOUND": "CCOC(=O)N1CCN(CC(=O)N2C(c3cccc(F)c3)C(C)C(=O)C(C)C2c2cccc(F)c2)CC1 (centres undefined)",
    "MIC": "25 µg/mL"
  },
  {
    "COMPOUND": "CCOC(=O)N1CCN(CC(=O)N2C(c3ccc(F)cc3)CC(=O)C(C)C2c2ccc(F)cc2)CC1 (centres undefined)",
    "MIC": "25 µg/mL"
  },
  {
    "COMPOUND": "CCOC(=O)N1CCN(CC(=O)N2C(c3ccc(Cl)cc3)C(C)C(=O)C(C)C2c2ccc(Cl)cc2)CC1 (centres undefined)",
    "MIC": "200 µg/mL"
  }
]

Attention now turns to another entry.
MIC for CCOC(=O)N1CCN(CC(=O)N2C(c3cccc(F)c3)CC(=O)C(C)C2c2cccc(F)c2)CC1 (centres undefined) is 12.5 µg/mL

----------
# System: Bacillus subtilis
# EXPERIMENT_NOTES: Antibacterial activity against Bacillus subtilis ATCC 461 after 24 hr by two-fold serial dilution method
# Type: functional
# CONDITION_CONTEXT: ATCC 461, 24 h
MEASUREMENT_LABEL: MIC (mg/L)
Form entry: value (mg/L) — number only.

Use the examples below as a reference point.
[
  {
    "COMPOUND": "CCOC(=O)N1CCN(CC(=O)N2C(c3ccc(Cl)cc3)C(C)C(=O)C(C)C2c2ccc(Cl)cc2)CC1 (stereo not given)",
    "MIC / mg/L": 50
  },
  {
    "COMPOUND": "CCOC(=O)N1CCN(CC(=O)N2C(c3ccc(OC)cc3)C(C)C(=O)C(C)C2c2ccc(OC)cc2)CC1 (stereo not given)",
    "MIC / mg/L": 50
  },
  {
    "COMPOUND": "CCOC(=O)N1CCN(CC(=O)N2C(c3ccc(F)cc3)CC(=O)C(C)C2c2ccc(F)cc2)CC1 (stereo not given)",
    "MIC / mg/L": 25
  },
  {
    "COMPOUND": "CCOC(=O)N1CCN(CC(=O)N2C(c3ccc(C)cc3)CC(=O)C(C)C2c2ccc(C)cc2)CC1 (stereo not given)",
    "MIC / mg/L": 100
  },
  {
    "COMPOUND": "CCOC(=O)N1CCN(CC(=O)N2C(c3ccccc3)CC(=O)C(C)C2c2ccccc2)CC1 (stereo not given)",
    "MIC / mg/L": 50
  }
]

MIC for CC1(C)S[C@@H]2[C@H](NC(=O)Cc3ccccc3)C(=O)N2[C@H]1C(=O)O is 12.5

MIC for CCOC(=O)N1CCN(CC(=O)N2C(c3cccc(F)c3)CC(=O)C(C)C2c2cccc(F)c2)CC1 (stereo not given) is 100

MIC for CCOC(=O)N1CCN(CC(=O)N2C(c3ccccc3)CC(=O)C(CC)C2c2ccccc2)CC1 (stereo not given) is 50

MIC for CCOC(=O)N1CCN(CC(=O)N2C(c3cccc(F)c3)C(C)C(=O)C(C)C2c2cccc(F)c2)CC1 (stereo not given) is 12.5

MIC for CCOC(=O)N1CCN(CC(=O)N2C(c3ccc(F)cc3)CC(=O)C(CC)C2c2ccc(F)cc2)CC1 (stereo not given) is 100
